// reported Pigweed plant response rating for each item listed
Test system: pigweed (Amaranthus retroflexus)
Assay: Test A postemergence, pigweed
Type: in vivo
Conditions: Postemergence, 500 g ai/ha; visual injury vs untreated controls after approx. 10 days; 0 to 100 scale (0 no effect, 100 complete control)
Excerpt: Seeds of plant species selected from barnyardgrass (Echinochloa crus-galli), kochia (Bassia scoparia), ragweed (common ragweed, Ambrosia artemisiifolia), Ryegrass, Italian (Italian ryegrass, Lolium multiflorum), Foxtail, Giant (giant foxtail, Setaria faberi), and pigweed (Amaranthus retroflexus) were planted into a blend of loam soil and sand and treated preemergence with a directed soil spray using test chemicals formulated in a non-phytotoxic solvent mixture which included a surfactant. […]
value.type: Pigweed plant response rating

| compound | system.under.test | value.observed |
| --- | --- | --- |
| Cc1cc(C)c(C2=NOC3CCCC23)cc1NS(=O)(=O)C(F)(F)F (centres unmarked) [Compound 166] | pigweed (Amaranthus retroflexus) | 90 |
| C#CCN(C)C(=O)c1cc(NS(=O)(=O)C(F)(F)F)c(C)cc1C | pigweed (Amaranthus retroflexus) | 90 |
| CCn1nc(Cl)cc(-c2cc(NS(=O)(=O)C(F)(F)F)c(C)cc2C)c1=O | pigweed (Amaranthus retroflexus) | 80 |
| Cc1cc(Cl)c(NS(=O)(=O)C(F)(F)F)cc1C1=NOC2(CCCCC2)C1 | pigweed (Amaranthus retroflexus) | 80 |
| CCn1nc(C)cc(-c2cc(N(S(=O)(=O)C(F)(F)F)S(=O)(=O)C(F)(F)F)c(C)cc2C)c1=O | pigweed (Amaranthus retroflexus) | 50 |
| Cc1cc(C)c(C2=NOC(C(C)(C)C)C2)cc1NS(=O)(=O)C(F)(F)F (centres unmarked) | pigweed (Amaranthus retroflexus) | 60 |
| COc1ccnn(-c2cc(NS(=O)(=O)C(F)(F)F)c(C)cc2C)c1=O | pigweed (Amaranthus retroflexus) | 90 |
| Cc1cc(C)c(N(S(=O)(=O)C(F)(F)F)S(=O)(=O)C(F)(F)F)cc1C1=NOC2(CCSCC2)C1 | pigweed (Amaranthus retroflexus) | 80 |
| C#CCN(C)C(=O)c1cc(NS(=O)(=O)C(F)(F)F)c(C)c(F)c1C | pigweed (Amaranthus retroflexus) | 90 |
| Cc1cc(C)c(N(S(=O)(=O)C(F)(F)F)S(=O)(=O)C(F)(F)F)cc1C1=NOC2(CCC3(CC2)OCCO3)C1 | pigweed (Amaranthus retroflexus) | 90 |
| Cc1cc(C)c(N(S(=O)(=O)C(F)(F)F)S(=O)(=O)C(F)(F)F)cc1C(=O)N1CCC(F)(F)CC1 | pigweed (Amaranthus retroflexus) | 100 |

====

// reported Corn plant response rating for each item listed
system: corn (Zea mays); assay: Test A postemergence, corn; assay type: in vivo; settings: Postemergence, 500 g ai/ha; visual injury vs untreated controls after approx. 10 days; 0 to 100 scale (0 no effect, 100 complete control)

| molecule | Corn plant response rating |
| --- | --- |
| Cc1cc(C)c(C(=O)N2CCC3(CC2)OCCCO3)cc1NS(=O)(=O)C(F)(F)F [Compound 194] | 0 |
| C#CCN(C)C(=O)c1cc(NS(=O)(=O)C(F)(F)F)c(C)c(F)c1C [Compound 179] | 80 |
| Cc1cc(C)c(C2=NOC3(CCC3)C2)cc1NS(=O)(=O)C(F)(F)F [Compound 228] | 70 |

====

system: wheat (Triticum aestivum); test: Test A postemergence, wheat; assay type: in vivo; conditions: Postemergence, 125 g ai/ha; 0 to 100 scale (0 no effect, 100 complete control)

| compound | system.under.test | Plant response rating, Wheat |
| --- | --- | --- |
| CC(=O)N(c1cc(N2CCC3(CCCCC3)C2=O)c(C)cc1C)S(=O)(=O)C(F)(F)F | wheat (Triticum aestivum) | 30 |
| CC(=O)OCN(c1cc(C2=NOC3(CCCC3)C2)c(C)cc1C)S(=O)(=O)C(F)(F)F | wheat (Triticum aestivum) | 10 |
| Cc1cc(C)c(C2=NOC3CCCC23)cc1NS(=O)(=O)C(F)(F)F (stereo not drawn) | wheat (Triticum aestivum) | 60 |
| Cc1cc(C)c(N(S(=O)(=O)C(F)(F)F)S(=O)(=O)C(F)(F)F)cc1C1=NOC2(CCCCCC2)C1 | wheat (Triticum aestivum) | 0 |
| Cc1cc(C)c(N(S(=O)(=O)C(F)(F)F)S(=O)(=O)C(F)(F)F)cc1C(=O)N1CCC(Cl)CC1 | wheat (Triticum aestivum) | 0 |
| Cc1cc(Cl)c(C(=O)N(C)C)cc1N(S(=O)(=O)C(F)(F)F)S(=O)(=O)C(F)(F)F | wheat (Triticum aestivum) | 20 |
| Cc1cc(C)c(N(S(=O)(=O)C(F)(F)F)S(=O)(=O)C(F)(F)F)cc1C1=NOC2(CCC(C)(C)CC2)C1 | wheat (Triticum aestivum) | 0 |
| COC1CCCN(C(=O)c2cc(NS(=O)(=O)C(F)(F)F)c(Cl)cc2C)C1 (stereo not drawn) | wheat (Triticum aestivum) | 50 |
| Cc1cc(Cl)c(NS(=O)(=O)C(F)(F)F)cc1C(=O)N1CCC(F)CC1 | wheat (Triticum aestivum) | 60 |
| Cc1cc(C)c(C(=O)N2CCC3(CC2)OCCCO3)cc1NS(=O)(=O)C(F)(F)F | wheat (Triticum aestivum) | 0 |
| Cc1cc(C)c(N(S(=O)(=O)C(F)(F)F)S(=O)(=O)C(F)(F)F)cc1C(=O)N1CCC(F)(F)CC1 | wheat (Triticum aestivum) | 0 |
| CCC(=O)OCN(c1cc(C2=NOC3(CCCC3)C2)c(C)cc1C)S(=O)(=O)C(F)(F)F | wheat (Triticum aestivum) | 60 |
| COC1CCCN(C(=O)c2cc(NS(=O)(=O)C(F)(F)F)c(C)cc2C)CC1 (stereo not drawn) | wheat (Triticum aestivum) | 0 |
| Cc1cc(C)c(C2=NOC3(CCC3)C2)cc1NS(=O)(=O)C(F)(F)F | wheat (Triticum aestivum) | 0 |
| Cc1cc(C)c(N(COC(=O)CC(C)C)S(=O)(=O)C(F)(F)F)cc1C1=NOC2(CCCC2)C1 | wheat (Triticum aestivum) | 30 |
| Cc1cc(C)c(C(=O)N2CCC(C#N)CC2)cc1NS(=O)(=O)C(F)(F)F | wheat (Triticum aestivum) | 50 |
| Cc1c(NS(=O)(=O)C(F)(F)F)cc(C(=O)N2CCCCC2)c(C)c1F | wheat (Triticum aestivum) | 30 |
| Cc1cc(C(F)(F)F)c(C(=O)N(C)C)cc1NS(=O)(=O)C(F)(F)F | wheat (Triticum aestivum) | 0 |
| Cc1cc(Cl)c(N(S(=O)(=O)C(F)(F)F)S(=O)(=O)C(F)(F)F)cc1C(=O)N1CCC(Cl)CC1 | wheat (Triticum aestivum) | 20 |
| COC(=O)N(c1cc(N2CCC3(CCCCC3)C2=O)c(C)cc1C)S(=O)(=O)C(F)(F)F | wheat (Triticum aestivum) | 0 |
| C#CCN(C)C(=O)c1cc(NS(=O)(=O)C(F)(F)F)c(C)c(F)c1C | wheat (Triticum aestivum) | 0 |
| Cc1cc(F)c(C(=O)N2CCOCC2)cc1NS(=O)(=O)C(F)(F)F | wheat (Triticum aestivum) | 0 |
| CCN(CC)C(=O)c1cc(NS(=O)(=O)C(F)(F)F)c(C)cc1C | wheat (Triticum aestivum) | 40 |
| Cc1cc(C)c(N(COC(=O)C2CCCC2)S(=O)(=O)C(F)(F)F)cc1C1=NOC2(CCCC2)C1 | wheat (Triticum aestivum) | 60 |

====

// reported Pigweed, Palmer plant response rating for each item listed
test system: Pigweed, Palmer (palmer amaranth, palmer pigweed, Amaranthus palmeri); test: Test A1 postemergence, Pigweed, Palmer; format: in vivo; details: 31 g ai/ha, postemergence; 0 to 100 scale (0 no effect, 100 complete control)

| compound | Pigweed, Palmer plant response rating |
| --- | --- |
| CCC1CC(c2cc(N(COC(=O)C(C)(C)C)S(=O)(=O)C(F)(F)F)c(C)cc2C)=NO1 (stereo not drawn) [Compound 376] | 0 |
| Cc1c(C(=O)N2C[C@@H](C)O[C@H](C)C2)cc(N(COC(=O)C(C)(C)C)S(=O)(=O)C(F)(F)F)c(C)c1C (relative stereo) [Compound 373] | 0 |
| Cc1cc(C)c(C2=NOC3OCCCC23)cc1NS(=O)(=O)C(F)(F)F (stereo not drawn) [Compound 372] | 30 |

====

// reported Plant response rating, Ryegrass, Italian for each item listed
tested on: Ryegrass, Italian (Italian ryegrass, Lolium multiflorum); assay: Test A postemergence, Ryegrass, Italian; assay type: in vivo; conditions: Postemergence, 125 g ai/ha; visual injury approx. 10 days; 0 to 100 scale (0 no effect, 100 complete control)

| compound | system.under.test | Plant response rating, Ryegrass, Italian |
| --- | --- | --- |
| Cc1cc(C)c(N(S(=O)(=O)C(F)(F)F)S(=O)(=O)C(F)(F)F)cc1C1=NOC(C(C)(C)C)C1 (stereo not drawn) [Compound 127] | Ryegrass, Italian (Italian ryegrass, Lolium multiflorum) | 40 |
| Cc1c(NS(=O)(=O)C(F)(F)F)cc(C(=O)N2CCC(F)CC2)c(C)c1F [Compound 109] | Ryegrass, Italian (Italian ryegrass, Lolium multiflorum) | 40 |
| Cc1cc(C)c(-c2cc(Br)nn(C)c2=O)cc1NS(=O)(=O)C(F)(F)F [Compound 69] | Ryegrass, Italian (Italian ryegrass, Lolium multiflorum) | 40 |
